testName: Chemical stability in presence of alkaline phosphatase
Format: physicochemical
reportedProperty: Kd (nM)
One number for each entry, in nM.

Can you look up the measured Kd of O=P(O)(O)O[C@@H]1[C@H](O)[C@H](O)[C@@H](OP(=O)(O)O)[C@H](OP(=O)(O)O)[C@H]1O [INS(1,4,5)P3] for me? 54
